# tgt: human PAH with the R408W mutation (A375 R408W cells) (Homo sapiens, UniProt P00439, R408W)
# Construct: expressed in transfected cells
# Sequence (P00439 1-452 R408W): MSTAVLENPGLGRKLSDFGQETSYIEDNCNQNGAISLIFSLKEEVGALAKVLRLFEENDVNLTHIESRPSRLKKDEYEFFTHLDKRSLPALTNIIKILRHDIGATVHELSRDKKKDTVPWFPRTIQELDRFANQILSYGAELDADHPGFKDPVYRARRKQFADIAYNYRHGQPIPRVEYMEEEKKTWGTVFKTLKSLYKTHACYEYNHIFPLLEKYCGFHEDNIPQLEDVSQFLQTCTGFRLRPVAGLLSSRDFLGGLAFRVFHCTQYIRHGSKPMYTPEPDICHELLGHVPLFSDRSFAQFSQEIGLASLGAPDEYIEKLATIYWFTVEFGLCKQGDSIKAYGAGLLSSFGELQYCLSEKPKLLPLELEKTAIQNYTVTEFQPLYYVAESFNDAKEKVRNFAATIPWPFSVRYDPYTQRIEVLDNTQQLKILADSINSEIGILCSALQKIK
# methodSummary: Cell Based Phenylalanine Flux Assay
# conditionsUsed: A375 R408W cells; 24 hrs with compound, then 20 μM sepiapterin and 800 μM 13C9,15N-Phenylalanine for 4 hours; 13C-Tyrosine by LC-MS; average where tested multiple times
quantityName: AC50

- compound: "O=C(c1nnc(-c2ccccn2)o1)N1CCc2[nH]cnc2[C@H]1c1nc2c(F)cccc2o1"
  result: "≤ 500 nM"
- compound: "O=C(c1nnc(-c2ccccn2)o1)N1CCc2[nH]cnc2[C@@H]1c1nc2c(F)cc(F)cc2o1"
  result: "1000 to 5000 nM"
- compound: "CC(C)(O)c1nc(C(F)F)c(C(=O)N2CCc3[nH]cnc3[C@@H]2c2nc3cc(F)ccc3o2)o1 (single isomer, unassigned)"
  result: "1000 to 5000 nM"
- compound: "O=C(c1nnc(-c2ccc(F)cc2)o1)N1CCc2[nH]cnc2[C@@H]1c1nc2cc(F)ccc2o1"
  result: "1000 to 5000 nM"
